Numbers sourced from paper PMC12113339.

Assignment: determine reported EC50 for the given compounds.
Test system: GFP-labelled L. amazonensis amastigotes within J774.A1 macrophages
Experiment: microbe, parasite or virus in culture
Assay type: cell-based, Leishmania amazonensis
Details: Leishmania amazonensis; intracellular amastigotes in J774.A1, 24 h treatment, % infected cells; read-out: EC50 ± SD, amastigotes
Please state the figure in µM; there is no need to write the unit.

EC50 for `COc1cccc(CCCCCCCCOP(=O)([O-])OCC[N+](C)(C)C)c1` ?
12

Further, for `COC(=O)c1c(CCCCCCCCOP(=O)([O-])OCC[N+](C)(C)C)cccc1OC` ?
10

Further, for `COc1cc(CCCCCCCCOP(=O)([O-])OCC[N+](C)(C)C)cc(OC)c1` ?
16

Further, for CCCCCCCCCCCCCCCCOP(=O)([O-])OCC[N+](C)(C)C [MIL, hexadecylphosphocholine, reference compound] ?
17

====

System: Leishmania amazonensis promastigotes
Test: microbe, parasite or virus in culture
Assay type: cell-based
Details: Leishmania amazonensis, read-out: EC50, promastigotes, cell concentration 1 x 10^9 parasites/mL
Method: Cells - Leishmania (L.) amazonensis (MHOM/BR/75/Josefa) and green fluorescent protein (GFP)-labelled L. amazonensis (IFLA/BR/67/PH8) reference strains in their promastigote form were grown in 24-well microtiter plates containing 2 mL of Grace’s insect medium supplemented with 20% heat-inactivated FCS, 2 mM L-glutamine, 100 U/mL penicillin, and 100 µg/mL streptomycin, as previously described.[11] ^, [12] […]
Assay Endpoint: EC50

EC50 for CCCCCCCCCCCCCCCCOP(=O)([O-])OCC[N+](C)(C)C [MIL, hexadecylphosphocholine, reference compound] ?
~660 µM

====

Assignment: determine reported hemolysis at 2 h, 3.3 mM for the given compounds.
Assay: Haemolytic potential in PBS
Format: cell-based
Settings: human, washed erythrocytes in PBS, 3.3 mM, haematocrit 2%, 2 h at 36.5 °C; read-out: Erythrocytes in PBS - % haemolysis
Enter the number, and then the unit.

hemolysis at 2 h, 3.3 mM for `COc1cc(CCCCCCCCOP(=O)([O-])OCC[N+](C)(C)C)cc(OC)c1` ?
29.8%

Further, for `COc1cccc(CCCCCCCCOP(=O)([O-])OCC[N+](C)(C)C)c1` ?
26.2%

Further, for `COC(=O)c1c(CCCCCCCCOP(=O)([O-])OCC[N+](C)(C)C)cccc1OC` ?
8.5%

====

Assay: Haemolytic potential in whole blood
Type: cell-based, human
Settings: human, whole blood reconstituted from plasma and blood cells, 12.5 mM, 24 h at 7 °C; read-out: Whole blood - % haemolysis
Assay Endpoint: hemolysis at 24 h, 12.5 mM
Enter the number, and then the unit.

hemolysis at 24 h, 12.5 mM for `COC(=O)c1c(CCCCCCCCOP(=O)([O-])OCC[N+](C)(C)C)cccc1OC` ?
24.2%

====

System: GFP-labelled L. amazonensis amastigotes within J774.A1 macrophages
Assay: microbe, parasite or virus in culture
Type: cell-based, Leishmania amazonensis
Conditions: 24 h of treatment, MFI
Assignment: determine reported Minimum concentration required to significantly decrease the mean fluorescence intensity for the given compounds.
Please state the figure in µM; there is no need to write the unit.

Minimum concentration required to significantly decrease the mean fluorescence intensity for CCCCCCCCCCCCCCCCOP(=O)([O-])OCC[N+](C)(C)C [MIL, hexadecylphosphocholine, reference compound] ?
15

Further, for `COC(=O)c1c(CCCCCCCCOP(=O)([O-])OCC[N+](C)(C)C)cccc1OC` ?
7.5

Further, for `COc1cc(CCCCCCCCOP(=O)([O-])OCC[N+](C)(C)C)cc(OC)c1` ?
7.5

Further, for `COc1cccc(CCCCCCCCOP(=O)([O-])OCC[N+](C)(C)C)c1` ?
7.5
